Source: the supplement of paper PMC9170038

tested on: MS2 coat protein; assay: apparent KD of MS2 coat protein; higher = weaker reporter binding; details: Eterna round: R107; input ligand: none
assay.readout: apparent KD of MS2 coat protein (nM)
Please reply with the bare figure in nM and do not write the unit itself.

Example entries begin here.
- sequence.text: "CCGUCACAUGAGGAUCACCCAUGUGCGGAAGGAGCGGACGACAGUCCAGGUAGGUCGCCGUAUAGCCAAUGACCAGCAGUGUCGG [Betesotiqu]"
  quantity.unit: "nM"
  apparent KD of MS2 coat protein: 10.6
- sequence.text: "AGUAUCAGUGGAAGGAGCGUCGCGAAUGCCACAUGAGGAUCACCCAUGUCGCCUUGAGCGCGACAGGUAGGUCGCCACGGUAGGC [SS-ArgB3]"
  quantity.unit: "nM"
  apparent KD of MS2 coat protein: 208

// next item, apparent KD of MS2 coat protein requested
Ask | Return reported apparent KD of MS2 coat protein; argument: UCGCUCUGGGUGGGAUCCGGAGAUGUGGAAGGAGCGCUGGUAACAGCAGGUAGGUCGCCAACGGACAUGAGGAUCACCCAUGUAC [Same State - Arginine A (Freestyle 17)]
Reply | 37.3

----------
test system: MS2 coat protein; experiment: apparent KD of MS2 coat protein; designed switch direction (-1 OFF switch, 1 ON switch): 1; higher = weaker reporter binding; conditions: input ligand: none
Assign true to entries whose apparent KD of MS2 coat protein meets or exceeds 90 nM; assign false to the rest.

- sequence.text: "GUGGUCAGACAUGAGGAUCACCCAUGUGGAAUAAAUAACAGACAGGAUAUGUAAUAUAAAAUAUAACAGAAGGGUCGAUUGGUG (Eterna round: R96, puzzle: Same State NG 3)"
  test.target: "MS2 coat protein"
  assigned.label: "true"
- sequence.text: "GCUCUGGCGGUAGGAUAUCUAGGAUAUGGGAAAGACUAAGUCUGUAGGUCACCUAACCCAGAAGGAGAGAAGGACCCUGUAAGG [pwkr ssNG2 2FMN + F9.23] (Eterna round: R96, puzzle: Same State NG 2)"
  test.target: "MS2 coat protein"
  assigned.label: "false"

Ask | Is apparent KD of MS2 coat protein for GAGGGACAGACCAACAUGAGGAUCACCCAUGUCCUCGCAGGUCAGGAUAUUAUGAGGAUCACCCAUGAGAAGGGACGGUGAACC (Eterna round: R96, puzzle: Same State NG 3) at or above 90 nM?
Reply | true

Ask | Is apparent KD of MS2 coat protein for UUUCCAUAGAUAGGAUAUCAGUUUACAUGAGGAUCACCCAUGUUCUCUUUGGUUUUAAUUUUUUCUGAGAAGGAUCUUGAUGAA [JR_SSNG2_Sub001] (Eterna round: R96, puzzle: Same State NG 2) at or above 90 nM?
Reply | false

Ask | Is apparent KD of MS2 coat protein for UGGCUCAGACGAGGAUAUAUGUAAUAACAUGAGGAUCACCCAUGUGUCGAGCUUCGGCUCGACACAUAGAAGGCGUCUGAGCCA [SSNG2/2-A2] (Eterna round: R96, puzzle: Same State NG 2) at or above 90 nM?
Reply | false

----------
system: MS2 coat protein; experiment: apparent KD of MS2 coat protein; designed switch direction (-1 OFF switch, 1 ON switch): 1; higher = weaker reporter binding; details: input ligand: none
assay.readout: apparent KD of MS2 coat protein (µM)
Please reply with the bare figure in µM and do not write the unit itself.

- sequence.text: "GGAAUAUGAUGUUACAUGAGGAUCACCCAUGUAGUAAUAACUAAGGAUAUCUGAAAGGGAGGAGAAGAGAAGGUAGGAUCAUAA [AK SSNG3-V2-10.2] (Eterna round: R96, puzzle: Same State NG 3)"
  apparent KD of MS2 coat protein / µM: 0.0564
- sequence.text: "ACAUGAGAGUGAGGAUAUACUGUACCUACAUGUGACAUGAGGAUCACCCAUGUGGUAAGUAUGACGUAGAAGGCACAGAUAUGU [Equivalance 79 - Jieux - Same State NG 2] (Eterna round: R96, puzzle: Same State NG 2)"
  apparent KD of MS2 coat protein / µM: 0.182
- sequence.text: "AUUAUUAAUGCAGGAUAUGAUUAACAUGAGGAUCACCCAUGUGGUGUUGUGAGUAAGGAGAGUGAUCAGAAGGGCAUUUUUUCU [JMF's solution 17] (Eterna round: R96, puzzle: Same State NG 2)"
  apparent KD of MS2 coat protein / µM: 0.585
- sequence.text: "GCCGCGUUUCGCGCCUACAUGAGGAUCACCCAUGUUUGUCGGCAGGAUAUCGUCCGCUCUGCGGGCGAGAAGGGCUAUUGUGGU [salish99_SSNG3_R04_027] (Eterna round: R96, puzzle: Same State NG 3)"
  apparent KD of MS2 coat protein / µM: 0.0245
- sequence.text: "AAAAGCGACGUAGGAUAUCCUCUACAUGCGUAAGGAGAAGGAUGCGCAACAUGAGGAUCACCCAUGUAAAACCAGCACUACUGG [Zalaendi] (Eterna round: R96, puzzle: Same State NG 1)"
  apparent KD of MS2 coat protein / µM: 0.0449
- sequence.text: "CGUCCGGCCUGAGCUGGACGGAGGCAUGUACAUGAGGAUCACCCAUGUUCAUGUGCAGGCUUUUUGCUCGUCUUGUG [JL-shm-2.07 JL mod] (Eterna round: R96, puzzle: Sensor for hsa-mir-208a)"
  apparent KD of MS2 coat protein / µM: 0.0578
- sequence.text: "GGAAUAUUUACAGGAUAUGAUUUGUAAAGUCGAUCAGAAGGGUGGAUGUCUUACACGGUUUGUUACAUGAGGAUCACCCAUGUC [SameState NG1 #13] (Eterna round: R96, puzzle: Same State NG 1)"
  apparent KD of MS2 coat protein / µM: 0.378
- sequence.text: "UUAAUGAUGUUAGGAUAUACAUGAGGAAUCCUCGUAGAAGGAACAUGACAUGAGGAUCACCCAUGUAGCGCUCCGUAGAGCGCA [JL SSNG1 1.18] (Eterna round: R96, puzzle: Same State NG 1)"
  apparent KD of MS2 coat protein / µM: 0.0603

// next item, apparent KD of MS2 coat protein requested
Ask | Return reported apparent KD of MS2 coat protein; argument: AGCUAUCGAAAACGAUAGCAAAAGCAUGUACAUGAGGAUCACCCAUGUCAUGUACAAGCUUUUUGCUCGUCUUAAAA [JL zipper 23] (Eterna round: R96, puzzle: Sensor for hsa-mir-208a)
Reply | 1

----------
test system: MS2 coat protein; assay: apparent KD of MS2 coat protein; higher = weaker reporter binding; settings: Eterna round: R107; input ligand: arginine 13.2 mM
Assign T to entries whose apparent KD of MS2 coat protein meets or exceeds 20 nM; assign F to the rest.

// below: answered sequences
- sequence.text: "GAUGAACUAUUUGAUACCAGACAACAUGAGGAUCACCCAUGUGCGCGUCGUCCUCUGCCUGUCCCUUGGCAGCAAAUAGUUUAUC [XTheo B #10]"
  test.target: "MS2 coat protein"
  assigned.label: "T"
- sequence.text: "CUAUAAAUAGCGGCCGCCACUUACUCAUGAGGUAACAACAUGAGGAUCACCCAUGUUUGAGGAUCAAGGACCGGGCUAUUUAUAG [AstrosSSTryB#8]"
  test.target: "MS2 coat protein"
  assigned.label: "T"
- sequence.text: "CGGCCCUCACGUGAGGAUCACCCACGUGAUACCAGCCUGGAAACAGGCCCUUGGCAGCACUAGGUCAUCAAAGAUGACCAAGCCG [TheoAX 27 #OpenEnded #AlternativeMS2]"
  test.target: "MS2 coat protein"
  assigned.label: "F"

Ask | Is apparent KD of MS2 coat protein for GUUAAUAGAAAACUAUUAACAGUGGGUGAACGAGGACCGGUACGGCCGCCACUCGGACAUGAGGAUCACCCAUGUCCAUGUGAAA [AstrosExyTryA#5] at or above 20 nM?
Reply | F

Ask | Is apparent KD of MS2 coat protein for UAUACAUGAGGAUCACCCAUGUGCCAUGAUACCAGACAUGAAAAUGUCCCUUGGCAGCAUGGGAAAUGUAUAGCGGGAAACCCGA [Slatina] at or above 20 nM?
Reply | T

Ask | Is apparent KD of MS2 coat protein for UCGCGAUAGAGAAGGAGCGUCAACACCACAGAACAUGAGGAUCACCCAUGUGUUACUUUUAGACAGGUAGGUCGCUCUAGCGCUU [JR_Nu_ExcArginiB_Sub028] at or above 20 nM?
Reply | F

Ask | Is apparent KD of MS2 coat protein for ACAUGAGGAUCACCCAUGUUAAACAGGGUGCGAGGACCGGUACGGCCGCCACUCGGACAUUAUUACGAGUGAAUGGUAACGAUGU [#13 Exclusion Tryptophan A] at or above 20 nM?
Reply | T

Ask | Is apparent KD of MS2 coat protein for AAUAAACAUGAGGAUCACCCAUGUAUGGAAGGAGCGGUAAAUAAACCAGGUAGGUCGCCAGUGUGAGGGUCAUCUAUGUAAUAAA [Exclusion - Arginine A (Freestyle 1)] at or above 20 nM?
Reply | T

Ask | Is apparent KD of MS2 coat protein for GGUGGCGUGACGGAUACCAGCCACCGCGGCAACGCAACAUGAGGAUCACCCAUGUUGGGUGGCCCUUGGCAGCUGUCGUGCGGCG [#1 Same State - Theophylline B Attempt #23 (HarryS)] at or above 20 nM?
Reply | T

Ask | Is apparent KD of MS2 coat protein for CCGGCCAGGGCGGCCGCCACUGAACGUGGAAGAAAGAAAACAUGAGGAUCACCCAUGUAAAUCCUCAGGACCGGGCCAGGGCCGG at or above 20 nM?
Reply | T

Ask | Is apparent KD of MS2 coat protein for GGCCCUGCGGGCGCCCGCAGGGCCGCGGAUACCAGCGAGGUCCAUCGCCCUUGGCAGCCGAACAUGAGGAUCACCCAUGUCGGUG [Same State - Theophylline A Attempt #8 (HarryS)] at or above 20 nM?
Reply | F

Ask | Is apparent KD of MS2 coat protein for AUUCAUGAAAACAUGACAUAGGGAUCACUCCGAGGACCGGUACGGCCGCCACUCGCGAGGAGGCACAUGAGGAUCACCCAUGUUA [SS Tryp A #3] at or above 20 nM?
Reply | T
